Reference for the values: patent US12384740B2

tested on: neonatal human epidermal keratinocytes (HEKn); test: Transfection of HEKn with GFP-encoding RNA complexed with lipid, mean fluorescence intensity per cell (Table 1); type: cell-based; details: 20,000 HEKn per well, 24-well plate; 100 ng in vitro transcribed GFP RNA; 24 hours after transfection
Each entry below carries its reported Fluorescence Intensity (mean fluorescence intensity per cell).
property-label: Fluorescence Intensity (mean fluorescence intensity per cell)

# compound, tgt, result
data = [
    ("CCCCC/C=C\\C/C=C\\CCCCCCCCN(CCCCCCN(CCCCCCCC/C=C\\C/C=C\\CCCCC)CC(O)CN)CC(O)CN (stereo not drawn)", "neonatal human epidermal keratinocytes (HEKn)", "8596 a.u."),
    ("CCCCC/C=C\\C/C=C\\CCCCCCCCN(CCCCCN(CCCCCCCC/C=C\\C/C=C\\CCCCC)CC(O)CN)CC(O)CN (stereo not drawn)", "neonatal human epidermal keratinocytes (HEKn)", "7554 a.u."),
    ("CCCCC/C=C\\C/C=C\\CCCCCCCCN(CCCCCCCCCCN(CCCCCCCC/C=C\\C/C=C\\CCCCC)CC(O)CN)CC(O)CN (stereo not drawn)", "neonatal human epidermal keratinocytes (HEKn)", "7842 a.u."),
]
